# ASSAYED SYSTEM: Poly [ADP-ribose] polymerase tankyrase-1 (Homo sapiens, UniProt O95271)
# Sequence (O95271 whole entry, the tested form may be a part): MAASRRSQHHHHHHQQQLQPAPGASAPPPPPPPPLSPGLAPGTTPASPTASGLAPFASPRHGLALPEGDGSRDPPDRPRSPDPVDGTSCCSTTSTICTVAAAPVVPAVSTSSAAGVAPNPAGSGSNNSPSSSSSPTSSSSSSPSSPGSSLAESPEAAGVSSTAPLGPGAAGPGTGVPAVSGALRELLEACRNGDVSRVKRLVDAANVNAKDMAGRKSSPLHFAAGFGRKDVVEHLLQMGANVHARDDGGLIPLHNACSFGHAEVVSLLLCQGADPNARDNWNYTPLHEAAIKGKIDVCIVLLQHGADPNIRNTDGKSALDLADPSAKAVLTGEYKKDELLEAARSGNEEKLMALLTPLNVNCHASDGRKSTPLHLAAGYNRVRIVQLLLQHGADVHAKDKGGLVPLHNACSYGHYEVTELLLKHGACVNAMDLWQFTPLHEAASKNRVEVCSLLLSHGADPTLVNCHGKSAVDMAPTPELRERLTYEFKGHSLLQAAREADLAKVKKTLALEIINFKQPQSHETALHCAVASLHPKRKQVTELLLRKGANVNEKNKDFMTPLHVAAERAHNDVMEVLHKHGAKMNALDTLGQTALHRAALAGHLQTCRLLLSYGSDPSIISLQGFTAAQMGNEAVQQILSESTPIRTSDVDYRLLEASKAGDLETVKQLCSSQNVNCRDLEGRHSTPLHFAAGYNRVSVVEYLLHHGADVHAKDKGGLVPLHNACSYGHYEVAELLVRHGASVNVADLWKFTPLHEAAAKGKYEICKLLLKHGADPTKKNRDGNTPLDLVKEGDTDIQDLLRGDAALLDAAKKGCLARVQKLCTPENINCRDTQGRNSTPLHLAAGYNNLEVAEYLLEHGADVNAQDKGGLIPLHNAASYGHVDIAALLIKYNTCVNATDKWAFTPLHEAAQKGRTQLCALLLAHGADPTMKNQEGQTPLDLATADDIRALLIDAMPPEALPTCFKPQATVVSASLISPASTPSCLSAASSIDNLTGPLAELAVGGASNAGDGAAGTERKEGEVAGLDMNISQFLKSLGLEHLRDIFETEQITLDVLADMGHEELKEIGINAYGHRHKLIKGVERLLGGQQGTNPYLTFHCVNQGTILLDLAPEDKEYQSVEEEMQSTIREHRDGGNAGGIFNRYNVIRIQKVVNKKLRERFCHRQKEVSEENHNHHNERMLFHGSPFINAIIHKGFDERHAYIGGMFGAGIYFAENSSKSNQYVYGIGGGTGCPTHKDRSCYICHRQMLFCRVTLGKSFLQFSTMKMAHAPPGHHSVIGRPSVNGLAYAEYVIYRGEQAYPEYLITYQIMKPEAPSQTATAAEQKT
# ASSAY EXPLANATION: Inhibition of recombinant human N-terminal GST-tagged TNKS1 (1001 to 1327 residues) expressed in baculovirus infected sf9 cells using TACS-Sapphire as substrate measured after 30 mins by colorimetric assay
As shown below, each of these compounds has a reported IC50 value.
Give a bare numeral; the unit µM is implied.

Below, 2 compounds whose answers are already recorded.
> print(dat)
                               smiles.entry  display.unit  recorded.measurement
1  Cc1cccc2c(=O)[nH]c(CCC(=O)Nc3ccc(C(=O)Nc4cccc5cccnc45)cc3)nc12            µM                0.0051
2  O=C(CCc1nc2ccccc2c(=O)[nH]1)Nc1ccc(C(=O)Nc2cccc3cccnc23)cc1            µM                0.0091

Below: the item to evaluate.
Exam item: // lookup IC50 for O=C(Nc1cccc2cccnc12)c1ccc(N2C(=O)[C@@H]3[C@@H]4CC[C@@H](C4)[C@@H]3C2=O)cc1
Marked response: 0.343
